Data provenance is patent US12281162.

tested.on: T1, human G-protein-coupled receptor family C group 5 member D (GPRC5D) (human, UniProt Q9NZD1 1-345)
T1 construct: whole, on cells; also called human GPRC5D protein
protocol.notes: FACS, CHO-K1/GPRC5D
Could you please report measured Top for the items listed next?
Give bare numbers.

# binder, measured.quantity, quantitative.result
data = [
    ("58-H2L2 (antibody, V domains shown, humanized 58F9G10, VH v2 x VL v2) VH: QVQLVQSGAEVKKPGASVKVSCKASGYSFTGYYIHWVRQAPGQGLEWIGYISSYNAATSFNQKFKGRVTFTVDTSTSTVYMELSSLRSEDTAVYYCARTELRGPWFAYWGQGTLVTVSS VL: DTQMTQSPSSLSASVGDRVTITCSASSSVSYMNWYQQKPGKAPKRLIYDTSKLASGVPSRFSGSGSGTDYTLTISSLQPEDFATYYCQQWSNNPLTFGQGTKLEIK", "Top", 108000),
    ("58-H3L1 (antibody, V domains shown, humanized 58F9G10, VH v3 x VL v1) VH: QVQLVQSGAEVKKPGASVKVSCKASGYSFTGYYIHWVKQAPGQGLEWIGYISSYNAATSFNQKFKGRVTFTVDTSTSTVYMEFSSLRSEDTAVYYCARTELRGPWFAYWGQGTLVTVSS VL: DIQMTQSPSSLSASVGDRVTITCSASSSVSYMNWYQQKPGKAPKLLIYDTSKLASGVPSRFSGSGSGTDFTLTISSLQPEDFATYYCQQWSNNPLTFGQGTKLEIK", "Top", 104000),
    ("58-H2L1 (antibody, V domains shown, humanized 58F9G10, VH v2 x VL v1) VH: QVQLVQSGAEVKKPGASVKVSCKASGYSFTGYYIHWVRQAPGQGLEWIGYISSYNAATSFNQKFKGRVTFTVDTSTSTVYMELSSLRSEDTAVYYCARTELRGPWFAYWGQGTLVTVSS VL: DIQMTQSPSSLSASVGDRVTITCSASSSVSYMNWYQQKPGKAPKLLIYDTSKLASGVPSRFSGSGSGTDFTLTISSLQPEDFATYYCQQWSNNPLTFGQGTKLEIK", "Top", 110000),
    ("58-H1L3 (antibody, V domains shown, humanized 58F9G10, VH v1 x VL v3) VH: QVQLVQSGAEVKKPGASVKVSCKASGYSFTGYYIHWVRQAPGQGLEWMGYISSYNAATSFNQKFKGRVTMTRDTSTSTVYMELSSLRSEDTAVYYCARTELRGPWFAYWGQGTLVTVSS VL: DTQLTQSPSSLSASVGDRVTMTCSASSSVSYMNWYQQKPGKAPKRLIYDTSKLASGVPSRFSGSGSGTDYTLTISSMQPEDFATYYCQQWSNNPLTFGQGTKLEIK", "Top", 105000),
]

Now for the binder whose Top we want.
// query What Top value was documented for this binder, 58-H4L1 (antibody, V domains shown, humanized 58F9G10, VH v4 x VL v1) VH: QVQLVQSGAEVKKPGASVKISCKASGYSFTGYYIHWVKQAPGQGLEWIGYISSYNAATSFNQKFKGRATFTVDTSTSTAYMEFSSLRSEDSAVYYCARTELRGPWFAYWGQGTLVTVSS VL: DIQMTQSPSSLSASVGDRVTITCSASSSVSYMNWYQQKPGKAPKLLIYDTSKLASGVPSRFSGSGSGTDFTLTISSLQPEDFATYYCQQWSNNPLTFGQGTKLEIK ?
// result 105000
